test: yeast display, Sf9 membrane polyspecificity reagent, FACS + sequencing; frameworks hold sequencing errors
Experimental endpoint: polyreactivity (PSR sort gate)

QVQLVESGGGLVQAGGSLRLSCAASGSTFYAYAMGWYRQAPGKERELVAAISSDGTNYADSVKGRFTISRDNAKNTVYLQMNSLKPEDTAVFYCAADLLLYSSQDNDYWGQGTQVTVSS
low polyreactivity
QVQLVESGGGLVQAGGSLRLSCAASGSIFYTYVMGWYRPAPGKERELVAAISASGVRTYYADSVKGRFTISRDNAKYTFYLQMNSLKPEYTAVYFCAADRQRADYYWGQGTQVTVSS
high polyreactivity
QVQLVESGGGLVQAGGSLRLSCAASGSIFYTYVMGWYRQAPGKERELVAAITWSGGSTYYADSVKGRFTISRDNAKNTVYLQMNSLKPEDTAVYYCAAVRGYRSSKYDYWGQGTQVTVSS
high polyreactivity
QVQLVESGGGLVQAGGSLRLSCAASGSTLRDYVMGWYRQAPGKERELVAAITSRVDDTYYADSVKGRFTISRDNAKNTVYLQMNSLKPEDTAVYYCAKRYGRFYHYDYWGQGTQVTVSS
low polyreactivity

---

assay: yeast display, Sf9 membrane polyspecificity reagent, FACS + sequencing; frameworks hold sequencing errors
Experimental endpoint: polyreactivity (PSR sort gate)

QVQLVESGGGLVQAGGSLRLSCAASGSIFYYNPMGWYRQAPWKERELVAAITGSGGSTYYADSVKGRFTISRDNAKNTVYLQMNSLKPEDTAVYYCAADYSLYGWWFRNDYWGQGTQVTVSS
low polyreactivity
QDQLVDSGGGLVQAGGSLRLSCAASGSIFYLYAMGWYRQAPGKEREFVAAITWRGGSTYYADSVKGRFTISRDNAKNTVYLQLNSLKPEDTAVYYCGAKLPRVYGYGFEYWGQGTQVTVSS
low polyreactivity
QVHLVESGGGLVQAGGSLRLSCAASGRTFGWNVMGWYRQAPGTERELVAAISGSGGSTYYADSVKGRFTISRDNAKNTVYLQMNSLKPEDTAVYYCAALYGPGREYDYWGQGTQVTVSS
low polyreactivity

---

assay: yeast display, Sf9 membrane polyspecificity reagent, FACS + sequencing; frameworks hold sequencing errors
Experimental endpoint: polyreactivity (PSR sort gate)

LVQLVESGGGLVQAGGSLRLSCAASGITLARNAMGWYRQAPGKEWELVAAITWSGGTTYYADSVKGRFTISRDNAKNTVYLQMNSLKPEDTAVYYCAASAKLHYYRTYRYNYWGQGTQVTVSS
high polyreactivity
QVQLVESGGGLVQAGGSLRLSCAASGSIFRRNAMGWYRQAPGTERELVAAISLRGGSTYYADSVKGRFTISRDLAKNTVYLQMISLKTQDTAVYYCADDEFDDYDWYRGYDTTYDYWGQGTQVTGSS
low polyreactivity
QVQLVESGGGLVQAGGSLRLSCAASGFIFDVYAMGWYRQAPGNERELVATISSGDSTYYADSVKGRFTISRDNAKNTVYLQMNSLKPEDTAVYYCNTTEHKYVSSFEYGYWGQGTQVTVSS
low polyreactivity
QVQLVESGGGLVQAGGSLRLSCAASGSTFYTNAMGWYRQAPGKDRELVAVITSRGGGTYYADSVKGRFTISRDYAKNTVYLQMNRLKPEDTSVYYCAAYPLVSWGRHGTKGDYWGQGTQVTVSS
low polyreactivity
QVQLVESGGGLVQAGGSLRLSCAASGITFSSYTMGWYRQAPGKERELVAVISSGGSTNYADSVKGRFTISRDNAKNTVYLQMNSLKPEETAVYYCAARRSKYIPYYGKWYYRAFDYWGQGTQVSVSS
high polyreactivity

Turning to the following sequence.
Which polyreactivity (PSR sort gate) is listed for `QVQLVESGGGLVQAGGSLRLSCAASGRTFHGYAMGWYRQAPGNEREFVAAISSDGDSTYYADSVKGRFTISRDNAKNTVYLQMNSLKPEDTAVYYCAAERGYHGGGSGLYDYWGQGTQVTVSS` ?
low polyreactivity

---

test: yeast display, Sf9 membrane polyspecificity reagent, FACS + sequencing; frameworks hold sequencing errors
Experimental endpoint: polyreactivity (PSR sort gate)

Here's what some known entries look like.
QVQLVESGGGLVQAGGSLRLSCAASGSIFPVYAMGWYRQAPGKERELVASISTGGSTYYADSVKGRFTISRDNAKNTVYLQMNSLKPEDTAVYYCAATGWAYGYGYGYWGQGTQVTVSS
low polyreactivity
QVQLVESGGGLVQAGGSLRLSCAASGSTFPYNAMGWYSPAPGKERELVAAITSAGGTNYADSVKGRFTISRDNATNTVYLQMNSLKPEDTAVYYCAADGSGYYDWYYYWGQGTQVTVSS
low polyreactivity
QVQLVESGGGLVQAGASLRLSCAASGIIYAYNAMGWYRPAPGKERELVATITDSGGSTSYADSVKGRFTISRDNAKNTVYLQMNSLKPEDTAVYYCAVLPVYWYWRNYVYLSGYDYWGQGTQVTVSS
low polyreactivity
QVQLVESGGGLVQAGGSLRLCCAASGSTFADNAMGWYRQAPGTDGEFVAGISTNGGSTYYADSVKGRFRISRDNAKTTVDCQLNSLKPEDTAVYDSAAVNYYDQYGDYYWGQGTQVTVSS
low polyreactivity
QVQLVDSGGGLVQAGGSLRLSCAASGSTFYFKAMGWYRQAPGKEREFVATIRSGGSTYYADSVKGRFTISRDYAKNSVYLQMNSLTPEDTAVYYCAADLVDSYQWSIFLYGYWGQGTQVTVSW
low polyreactivity

Which polyreactivity (PSR sort gate) is listed for `QVQLVESGGGLVQAGGSLRLSCAASGRTLYLNAMRWNRQPQRKERELVAISSGGSTYYADSVKGRFTISRDNAKNTVYLQMNSLKPEDTAVYYCNADEHYHFGYVFWYAYDYWGQGTQVTVSS` ?
low polyreactivity

Which polyreactivity (PSR sort gate) is listed for `QVQLVESGGGLVQAGGSLRLSCAASGLTFYHYAMGWYRQAPGKERELVADISSGGSTSYADSVKGRFTISRDNAKNTVYLQMNSLKPEDTAVFYCAADYTWERYHRQIFRLDYWGQGTQVTVSS` ?
low polyreactivity

---

experiment: yeast display, Sf9 membrane polyspecificity reagent, FACS + sequencing; frameworks hold sequencing errors
Experimental endpoint: polyreactivity (PSR sort gate)

QVQLVESGGGLVQAGGSLRLSCAASGITFPLYVLGWYRQAPGKDRELVAAISASGGSTYADSVKGRFTISRDNAKNTVYFQMNSLKTEVTAVYYCNADVYVGYEYDYWGQGTQVTVSS
low polyreactivity
QVQLVESGGGLVQAGGSLRLSCAASGRTFGRYALGWYRQAPGKERELVAAIRSGGSTYYADSVKGRFTISRDNAKNTVYLQMNSLKPEDTAVYYCAADIARHLTGFAYYRLDYWGQGTQVTVSS
low polyreactivity
QVQLVESGVCIVQAGGSLRLSCAASGFTFRENAMGWYRQAPGKERELVAAISKRGGTTYYADSVKGRFTSSRDYAKNTVILQTNSLKPEDTAVYYCATQYLIQNKYYSWGQGTQVTVSS
high polyreactivity
QVQLVESGGGLVQAGGSLRLSCAASGSTFYQYSMGLYRQAHVKEREFVAAITTIGGLTFYADSVKGRFTISRDNAKNTVYLQMHSLKPEDTAVYYCAAGYRAWDPYGHYGYWGQGTQVTVSS
high polyreactivity
QVQLLESGGGLVQAGGILRLSCAASGIIFRYYTMGWYRPAPGKERELVAAITSGGSTNYADSVKGRFTISRDNAKHTVYLQMNRLKPEDTAVYYCRQLSVWGYDYWGQGTQVTVSS
high polyreactivity

Turning to the following sequence.
Which polyreactivity (PSR sort gate) is listed for `QVQLVESGGGLVQAGGSLRLSCAASGSIFYRNVMGWYRQAPGKERELVAAISWSGGSTYYADSVKGRFTISRDNAKNTVYLQMNSLKPEDTAVYYCAADIPKTGYPYAFEYWGQGTQVTVSS` ?
low polyreactivity

---

assay: yeast display, Sf9 membrane polyspecificity reagent, FACS + sequencing; frameworks hold sequencing errors
Experimental endpoint: polyreactivity (PSR sort gate)

Here's what some known entries look like.
QVQLVESGGGIVQAGGSLRLSCAGSGRTFLWNAMGWYRQAPGKERELVARINLSGGRTYYADSVKGRFTISRDNAKKTVNLQMNSLKPEDTAFYYCAATVVRYRRDSWGQGTQVTVSS
low polyreactivity
QVQLVESGGGLVQAGGSLRLSCAASGSTFSRYAMGWYRQAPGKEMELVAAITGSGGNTYYADSVKGRFTISRDNAKNTVYLQMNSLKPEDTAVYYCAAEDYVGWYNFEYWGQGTQVTVSS
high polyreactivity
QVQLQESGGVQVQAGGSLRLSCAASGYISTHYFMGWYRQAPGKDREFVAGISNGSITNYADSVKGRFTISRDNARNTVYLQMNSLKPEDTAVYYGAAYEWTYVRFGYWGQGTLVTVSS
high polyreactivity
QVQLVESVGGLDQARGSLRLSCAASGFIYRYYPMGWYRQSPGKERELVASIDWSGGNTYYADSVKGRFTISRDKAKYTVYLQMNSLKPEDTAVYYCNRRGMDWGLGTQVTVSS
low polyreactivity

Turning to the following sequence.
Which polyreactivity (PSR sort gate) is listed for `QVQLVESGGGLVQAGGSLRLSCAASGSIFFSNAMGWYRQAPGKERELVAGIRSGGITNYADSVKGRFTISRDNAKNTVYLQMNSLKPEDSAVYYCAKLKDHGRYAYAFDYWGQGTQVTVSS` ?
low polyreactivity
